Parameter: Activity. Scope: all listed entries.
- Test system: Plasmodium berghei
- procedure_summary: Antimalarial activity against Plasmodium berghei ANKA infected in C57BL/6J mouse assessed as decrease of parasitemia level at 5 mg/kg, po administered after 24 hrs post infection measured after 3 days in presence of 15 mg/kg of mefloquine hydrochloride relative to control
- Assay type: functional
- Design: scale not given: the % may be the effect or the level left

Request: Quick check: Activity on Plasmodium berghei, item C[C@H]1[C@@H]([C@H](C[C@H]2O[C@@H]3O[C@@]4(C)CC[C@H]5[C@H](C)CC[C@@H]([C@H]2C)[C@@]35OO4)OC(=O)Nc2ccc(F)cc2)O[C@@H]2O[C@@]3(C)CC[C@H]4[C@H](C)CC[C@@H]1[C@@]24OO3 ?
Response: >99.9%

Request: Quick check: Activity on Plasmodium berghei, item C[C@H]1[C@@H]([C@H](C[C@H]2O[C@@H]3O[C@@]4(C)CC[C@H]5[C@H](C)CC[C@@H]([C@H]2C)[C@@]35OO4)OC(=O)Nc2cccc(Cl)c2)O[C@@H]2O[C@@]3(C)CC[C@H]4[C@H](C)CC[C@@H]1[C@@]24OO3 ?
Response: >99.9%
